Tested on: Human papillomavirus type 1a protein E7 (residues 44-93)
protocol text: HPV1a E7 fragment binders on microarrays, primary screen, biochemical, small-molecule microarray, residues 44-93, 635 nm fluorescence (AID 1108);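 note: E7 fragment applied at 1 µg/mL in TBST for 1 h at 4 C; score combines spot fluorescence with its signal to noise ratio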
condition description: small-molecule microarray binding, fluorescence 635 nm; higher = more signal
// criterion not met strictly below -0.06 in composite z-score; criterion met otherwise

compound	tested system	class name
COCCOC(=O)N1C(=O)[C@@]2(c3cc(C#Cc4ccc(OC)cc4)ccc31)[C@H](c1ccc(O)cc1)N1[C@H](c3ccccc3)[C@H](c3ccccc3)OC(=O)[C@H]1[C@@H]2C(N)=O	Human papillomavirus type 1a protein E7 (residues 44-93)	criterion met
CO[C@H]1COC(=O)[C@H](C)NC(=O)[C@@H](C)COC(=O)CC=C[C@@H]1C	Human papillomavirus type 1a protein E7 (residues 44-93)	criterion met
CC(C)(C)N1C(=O)[C@H]2[C@H]3[C@H](O)[C@H](O)CC(=NOCc4ccccc4)[C@@H]3CC[C@H]2C1=O	Human papillomavirus type 1a protein E7 (residues 44-93)	criterion met
COC(=O)C1=C(C)[C@@H](O)[C@@H](C)[C@H](c2c(OC)c(OC)c(C)c(OC)c2OC)O1	Human papillomavirus type 1a protein E7 (residues 44-93)	criterion not met
N#Cc1ccc(NN2C(C(O)c3cccc4ccccc34)C=CC3C(=O)N(c4ccccc4)C(=O)C32)cc1 (stereo unspecified)	Human papillomavirus type 1a protein E7 (residues 44-93)	criterion met
C=CC[C@@H]1C=C[C@H](ON=C2c3cc(OC)ccc3O[C@H](c3cccc(OC)c3)[C@H]2O)[C@@H](CO)O1	Human papillomavirus type 1a protein E7 (residues 44-93)	criterion not met
CO[C@@H]1COC(=O)CC=C[C@@H](C)COC(=O)[C@H](COCc2ccccc2)NC(=O)CC=C[C@H]1C	Human papillomavirus type 1a protein E7 (residues 44-93)	criterion not met
CCCC[C@H]1OB(O)C[C@H]2C1=C(C)C[C@H]1C(=O)N(C)C(=O)[C@H]12	Human papillomavirus type 1a protein E7 (residues 44-93)	criterion met
COc1ccc(COC(=O)NN=C2C[C@@H](O)[C@@H](O)[C@@H]3[C@@H]4C(=O)N(Cc5ccc6c(c5)OCO6)C(=O)[C@@H]4CC[C@@H]23)cc1	Human papillomavirus type 1a protein E7 (residues 44-93)	criterion not met
O=C1[C@H]2[C@H]3[C@H](O)[C@H](O)CC(=NO[C@@H]4O[C@H](CO)[C@@H](O)[C@H](O)[C@H]4O)[C@@H]3CC[C@H]2C(=O)N1Cc1ccc2c(c1)OCO2	Human papillomavirus type 1a protein E7 (residues 44-93)	criterion met
C=CC[C@@H]1C=C[C@H](ON=C[C@@H](OC)[C@H](C)C=CCC(=O)OC)[C@@H](CO)O1	Human papillomavirus type 1a protein E7 (residues 44-93)	criterion met

---

tested system: Carbonic anhydrase 2 (Homo sapiens) (UniProt P00918)
protocol text: CAII small-molecule binders, profiling panel, biochemical, small-molecule microarray, Alexa647-labelled CAII (AID 1122)
condition description: CAII-A647 binding fluorescence, higher = more signal
Entries and their composite z-score
measured attribute: composite z-score

molecule	number
COc1ccc(O[C@H]2C=C[C@@H](c3ccccc3)O[C@@H]2CON=C[C@@H](C)[C@H](OCc2ccccc2)C(C)C)cc1	-0.89
CC(C)=CCCC(C)=CCON=C1[C@H]2CCn3c(=O)n(Cc4cc5c(cc4Cl)OCO5)c(=O)n3[C@H]2[C@H](O)[C@@H]2O[C@H]12	-0.158
CC(C)NC(=O)[C@@]1(C)c2ccccc2C(=O)N(Cc2cc(F)cc(C(F)(F)F)c2)[C@H]1c1ccc(CO)cc1	0.645
CCCNC(=O)OC[C@H]1O[C@H](CCON=C[C@@H](OC)[C@H](C)C=CCC(=O)OC)C=C[C@@H]1Oc1ccc(OC)cc1	0.0769
O=C1C[C@@H](O)[C@@H](O)[C@@H]2[C@@H]3C(=O)N(c4cccc(Oc5ccccc5)c4)C(=O)[C@@H]3CC[C@@H]12	0.285
COC(=O)CC=C[C@@H](C)[C@@H](C=NO[C@@H](C)c1cc(-c2c(C)cc(C)cc2C)no1)OC	-0.604
COC(=O)[C@@H]1CC[C@H](C)[C@@H](c2ccc(C)cc2)N1C(=O)c1ccc(C=NOC[C@@H](O)COCc2ccco2)cc1	-0.746
COc1cccc([C@@H]2Oc3ccc(Br)cc3C(=O)[C@H]2O)c1	0.439
CCc1cc2c(nc1CC)CCN(CCC(C)=NO[C@@H](C)c1cc(-c3c(C)cc(C)cc3C)no1)C2	-0.195
CC(C)(C)OC(=O)CC[C@]1(C(N)=O)COC(c2ccc(OCCCO)cc2)=N1	0.983
CO[C@H]1O[C@H](CO)[C@@H](OC(=O)Nc2ccc(C#N)cc2)[C@H](OC(=O)c2cc3ccccc3[nH]2)[C@H]1OC(=O)c1cc2ccccc2[nH]1	0.627
COCCOC(=O)N1C(=O)[C@@]2(c3cc(C#Cc4ccc(OC)cc4)ccc31)[C@H](C(=O)N1CCN(c3ncccn3)CC1)[C@H]1C(=O)O[C@H](c3ccccc3)[C@H](c3ccccc3)N1[C@@H]2c1ccc(OCCO)cc1	0.31
CC(C)=C1C(=O)C(c2ccccc2)=C2CN3C(=O)N(CCc4ccccc4)C(=O)[C@]3(Cc3ccc(F)cc3)[C@H]21	0.306
O=C1[C@H]2[C@H]3[C@H](O)[C@H](O)CC(=NOCc4ccccc4)[C@H]3CC[C@H]2C(=O)N1c1cccc(Oc2ccccc2)c1	0.144
COc1ccc(-c2ccc3c(n2)CCCN3CC(O)CN2CCCc3nc(C)c(C)cc32)cc1 (stereo not given)	0.741
CN(C)CCCNC(=O)[C@@H]1c2ccccc2C(=O)N(Cc2ccccc2)[C@H]1c1ccc(CO)cc1	0.196
COCCOC(=O)N1C(=O)[C@@]2(c3cc(C#CC4(O)CCCCCC4)ccc31)[C@H](C(=O)N1CCN(c3ncccn3)CC1)[C@H]1C(=O)O[C@H](c3ccccc3)[C@H](c3ccccc3)N1[C@@H]2c1ccc(OCCO)cc1	0.375
CO[C@@H]1COC(=O)CC=C[C@@H](C)[C@@H]2C=C[C@H](O)[C@@H](COC(=O)CCC[C@H]1C)O2	-0.455
O=C(CS)NCCCCCNC(=O)[C@@H]1C[C@@H]2C(=O)N[C@@H](Cc3ccccc3)C(=O)N2[C@@H]1c1ccc(O)cc1	0.674
CC(C)NC(=O)[C@@]1(c2ccc([N+](=O)[O-])cc2)CC(=O)N(CC23CC4CC(CC(C4)C2)C3)[C@@H]1c1ccc(CO)cc1I	0.241

---

tested system: Luciferin 4-monooxygenase (Photinus pyralis) (UniProt P08659)
Sequence (P08659 whole entry, looked up): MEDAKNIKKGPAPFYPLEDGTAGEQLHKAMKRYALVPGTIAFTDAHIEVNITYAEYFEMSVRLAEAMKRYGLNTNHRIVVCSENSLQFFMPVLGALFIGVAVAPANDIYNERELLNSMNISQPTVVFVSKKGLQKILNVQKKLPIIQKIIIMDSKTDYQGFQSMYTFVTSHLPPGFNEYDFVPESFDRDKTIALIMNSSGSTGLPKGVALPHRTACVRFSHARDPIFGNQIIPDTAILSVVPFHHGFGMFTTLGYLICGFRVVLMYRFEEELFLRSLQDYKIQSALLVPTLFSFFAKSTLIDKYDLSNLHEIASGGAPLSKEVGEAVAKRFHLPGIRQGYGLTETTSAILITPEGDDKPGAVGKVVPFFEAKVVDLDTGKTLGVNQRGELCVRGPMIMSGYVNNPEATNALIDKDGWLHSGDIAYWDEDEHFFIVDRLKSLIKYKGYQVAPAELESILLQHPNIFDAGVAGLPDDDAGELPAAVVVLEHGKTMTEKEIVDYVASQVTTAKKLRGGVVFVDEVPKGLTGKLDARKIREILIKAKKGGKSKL
protocol text: firefly luciferase enzyme inhibitors, primary screen, biochemical, luminescence, purified enzyme, 2006 set (AID 1141);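 note: cell-free assay with purified firefly luciferase at 100 ng per well in PBS; test concentration not given here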
condition description: SteadyGlo luminescence, 30 min, higher = more signal, called active from +8 up or from −8 down

compound	z-score
CC(CCN1CCc2nc(-c3ccccc3)c(-c3ccccc3)cc2C1)=NO[C@H](C)c1cn([C@@H]2COC[C@H]2O)nn1	-0.475
CN1C(=O)C2C=CC(C(O)c3ccc(I)cc3)N(NC(=O)OC(C)(C)C)C2C1=O (stereo not drawn)	0.607
COCC1=C2[C@@H](CCc3ccccc3)OB(O)C[C@@H]2n2c(=O)n(-c3ccccc3)c(=O)n2C1	-1.19
CC1(C)OCC(C(O)C2=CCCCC2=O)CO1 (stereo not drawn)	0.114
Cc1ccc(F)cc1S(=O)(=O)N[C@@H]1CCN(Cc2ccc(CC(C)C)cc2)C1	0.886
CC(=O)OC[C@H]1O[C@@H](ON=C[C@@H](C)[C@H](OCc2ccccc2)C(C)C)[C@H](OC(C)=O)[C@@H](OC(C)=O)[C@@H]1OC(C)=O	0.0242
C#CCCCON=C1C[C@@H](O)[C@@H](O)[C@@H]2[C@@H]3C(=O)N(c4cccc(Oc5ccccc5)c4)C(=O)[C@@H]3CC[C@@H]12	1.02
COC(=O)[C@@]1(Cc2ccc(OC)cc2)[C@H]2c3cc(C(=O)N4CCCC4)n(Cc4cc(F)c(F)c(F)c4)c3C[C@H]2CN1C(=O)c1ccccc1	1.95
Cc1ccc(S[C@]2(C(=O)O)CC(=O)N(Cc3ccccc3)[C@@H]2c2ccc(CO)cc2I)cc1	-0.57
COC(=O)[C@@]1(Cc2ccccc2)[C@H]2c3cc(C(=O)N4CCCC4)n(Cc4ccccn4)c3C[C@H]2CN1C(=O)c1ccccc1	1.93
CCCC=C(CCC)[C@@H](NC(=O)c1ccc(-c2ccccc2)cc1)c1ccc(C(=O)OC)cc1	1.93
CCCCc1nc2c(c3c1C[C@H](C)OC3)CN(CCC(C)C)CC2	-0.438
CC(=O)OC[C@H]1O[C@H](C#CCCCc2ccccc2)C=C[C@@H]1OC(C)=O	-1.65
CC(C)(C)N1C(=O)[C@H]2[C@H]3[C@H](O)[C@H](O)CC(=NOCc4ccccc4)[C@@H]3CC[C@H]2C1=O	-1
C#CCCCON=C1C[C@@H](O)[C@@H](O)[C@@H]2[C@@H]3C(=O)N(CCC(=O)OCC)C(=O)[C@@H]3CC[C@@H]12	0.224
Cc1ccc(S[C@]2(C(=O)NCC(F)(F)F)CC(=O)N(Cc3ccccc3Cl)[C@@H]2c2ccc(CO)cc2I)cc1	-0.289
CN(C)c1ccc(C(O)C2C=CC3C(=O)N(c4ccccc4)C(=O)C3N2Nc2ccccc2F)cc1 (stereo not drawn)	-0.484
Cc1cc(C)c(-c2cc([C@H](C)ON=C3[C@H]4CCn5c(=O)n(-c6ccccc6)c(=O)n5[C@H]4[C@H](O)[C@@H]4O[C@H]34)on2)c(C)c1	0.154
CO[C@@H]1COC(=O)CC=C[C@@H](C)[C@@H]2C=C[C@@H](O)[C@@H](COC(=O)CC=C[C@H]1C)O2	-2.29
CO[C@H]1COC(=O)[C@@H]2CCCN2C(=O)CC=C[C@@H](C)[C@H](OC)COC(=O)CC=C[C@@H]1C	-1.87
COCCOC(=O)N1C(=O)[C@@]2(c3cc(C#Cc4ccc(OC)cc4)ccc31)[C@H](C(=O)N1CCN(c3ncccn3)CC1)[C@H]1C(=O)O[C@H](c3ccccc3)[C@H](c3ccccc3)N1[C@@H]2c1ccc(OCCO)cc1	-0.411
COC(=O)[C@H](C)NC(=O)CCC1CC(OC(=O)NCc2cccc3ccccc23)CC2(CCCC(COC(=O)NCC3CCCCC3)O2)O1 (stereo partly drawn)	0.925
CC(CCN1CCc2nc(-c3ccccc3)c(-c3ccccc3)cc2C1)=NOC(C)CN1CCCCc2nc(C)c(C)cc21 (stereo not drawn)	-0.0959
